measured target: UniProt Q8TDV5
Sequence (Q8TDV5 whole entry): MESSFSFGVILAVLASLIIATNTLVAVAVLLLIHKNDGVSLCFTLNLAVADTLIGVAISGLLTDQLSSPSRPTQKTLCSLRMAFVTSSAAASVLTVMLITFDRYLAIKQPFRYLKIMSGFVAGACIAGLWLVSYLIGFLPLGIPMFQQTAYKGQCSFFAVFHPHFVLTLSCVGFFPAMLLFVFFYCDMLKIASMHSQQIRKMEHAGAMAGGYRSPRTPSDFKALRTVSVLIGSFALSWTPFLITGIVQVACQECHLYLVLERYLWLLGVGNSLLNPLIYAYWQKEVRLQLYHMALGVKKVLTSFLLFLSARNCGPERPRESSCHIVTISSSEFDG
assay name: Agonist activity at human GPR119 expressed in HEK293 cells assessed as increase in intracellular cAMP level after 60 mins by HTRF assay
pEC50: −log10 of the molar value.
Assign Criterion met whenever pEC50 does not fall below 9; assign Criterion not met whenever it does.

Tell me whether pEC50 is at least 9 here: CC(C)c1noc(N2CCC([C@H]3C[C@H]3CCOc3ccc(CC(=O)N4CCC4)c(F)c3)CC2)n1 Criterion not met

Could you please find out whether NC(=O)Cc1ccc(OCC[C@@H]2C[C@@H]2C2CCN(c3ncc(Cl)cn3)CC2)cc1 has pEC50 that meets 9 or exceeds it? Criterion not met

hey, is pEC50 for this one >= 9? COCc1cnc(N2CCC([C@H]3C[C@H]3CCOc3cc(F)c(CC(=O)N4CCC4)c(F)c3)CC2)nc1 Criterion met

Identify whether the reported pEC50 of the following molecule is 9 or greater: CC1(OC(=O)N2CCC([C@H]3C[C@H]3CCOc3ccc(CC(=O)N4CCC4)c(F)c3)CC2)CC1 Criterion not met

* * *

measured target: Glucose-dependent insulinotropic receptor (Mus musculus)
assay name: Agonist activity at mouse GPR119 expressed in CHO cells co-expressing Galpha15 assessed as increase in intracellular cAMP level after 60 mins by HTRF assay
Define the label as criterion met when EC50 is strictly less than 2 nM and as criterion not met in all remaining cases.

# count of solved cases: 7
* O=C(Cc1ccc(OCC[C@@H]2C[C@@H]2C2CCN(c3ncc(Cl)cn3)CC2)cc1)NC1CC1 | criterion met
* O=C(Cc1ccc(OCC[C@@H]2C[C@@H]2C2CCN(c3ncc(Cl)cn3)CC2)cc1F)N1CCC1 | criterion met
* CC(C)c1noc(N2CCC([C@H]3C[C@H]3CCOc3ccc(CC(=O)N4CCC4)c(F)c3)CC2)n1 | criterion not met
* CC1(OC(=O)N2CCC([C@H]3C[C@H]3CCOc3ccc(CC(=O)N4CCC4)c(F)c3)CC2)CC1 | criterion not met
* COCc1cnc(N2CCC([C@H]3C[C@H]3CCOc3cc(F)c(CC(=O)N4CCC4)c(F)c3)CC2)nc1 | criterion met
* O=C(Cc1ccc(OCC[C@@H]2C[C@@H]2C2CCN(c3ncc(Cl)cn3)CC2)nc1)N1CCC1 | criterion not met
* O=C(Cc1ccc(OCC[C@@H]2C[C@@H]2C2CCN(c3ncc(Cl)cn3)CC2)cc1F)N1CCCCC1 | criterion not met

Alright, here's another molecule for you.
Record CCc1cnc(N2CCC([C@H]3C[C@H]3CCOc3ccc(CC(=O)N4CCC4)c(F)c3)CC2)nc1 : is its EC50 strictly below 2 nM? criterion met

* * *

Reported half-life values are given for each entry in this list.
assay name: Half life in Wistar Han rat at 0.5 mg/kg, iv by LC-MS/MS analysis
Type: ADME, organism-based
reported conditions: in vivo
Just the number please, in h, no unit attached.

• COCc1cnc(N2CCC([C@H]3C[C@H]3CCOc3cc(F)c(CC(=O)N4CCC4)c(F)c3)CC2)nc1 = 3.5
• CC(C)c1noc(N2CCC([C@H]3C[C@H]3CCOc3ccc(CC(=O)N4CCC4)c(F)c3)CC2)n1 = 1.8
• O=C(Cc1ccc(OCC[C@@H]2C[C@@H]2C2CCN(c3ncc(Cl)cn3)CC2)cc1F)N1CC(O)C1 = 3.5
• COCc1cnc(N2CCC([C@H]3C[C@H]3CCOc3ccc(CC(=O)N4CCC4)c(F)c3)CC2)nc1 = 1.9
• O=C(Cc1ccc(OCC[C@@H]2C[C@@H]2C2CCN(c3ncc(Cl)cn3)CC2)cc1)N1CCC1 = 4.7
• O=C(Cc1ccc(OCC[C@@H]2C[C@@H]2C2CCN(c3ncc(Cl)cn3)CC2)cc1F)N1CCC1 = 6.9

Now consider the entry below.
Provide one value: measured half-life of CC1(OC(=O)N2CCC([C@H]3C[C@H]3CCOc3ccc(CC(=O)N4CCC4)c(F)c3)CC2)CC1 1.6

* * *

Documented Activity across a set of molecules
measured target: Glucose-dependent insulinotropic receptor (Mus musculus) (UniProt Q7TQP3)
Sequence (whole entry): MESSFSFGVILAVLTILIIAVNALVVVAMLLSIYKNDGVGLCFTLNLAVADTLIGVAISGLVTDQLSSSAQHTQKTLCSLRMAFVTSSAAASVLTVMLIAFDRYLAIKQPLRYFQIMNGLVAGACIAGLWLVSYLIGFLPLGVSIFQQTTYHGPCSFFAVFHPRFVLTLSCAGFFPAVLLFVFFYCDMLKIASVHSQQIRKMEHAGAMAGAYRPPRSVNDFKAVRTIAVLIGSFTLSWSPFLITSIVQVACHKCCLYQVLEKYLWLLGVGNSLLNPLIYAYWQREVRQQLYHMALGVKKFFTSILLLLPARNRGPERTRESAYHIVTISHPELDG
assay name: Agonist activity at mouse GPR119 expressed in CHO cells co-expressing Galpha15 assessed as increase in intracellular cAMP level after 60 mins by HTRF assay relative to control
Assay type: functional, cell-based
Field format: number, assumed %, no unit text.

* O=C(Cc1ccc(OCC[C@@H]2C[C@@H]2C2CCN(c3ncc(Cl)cn3)CC2)cc1F)N1CC(O)C1 | 110
* COCc1cnc(N2CCC([C@H]3C[C@H]3CCOc3cc(F)c(CC(=O)N4CCC4)c(F)c3)CC2)nc1 | 116
* O=C(Cc1ccc(OCC[C@@H]2C[C@@H]2C2CCN(c3ncc(Cl)cn3)CC2)cc1)NC1CC1 | 91
* CCc1cnc(N2CCC([C@H]3C[C@H]3CCOc3ccc(CC(=O)N4CCC4)c(F)c3)CC2)nc1 | 111
* O=C(Cc1ccc(OCC[C@@H]2C[C@@H]2C2CCN(c3ncc(Cl)cn3)CC2)cc1F)N1CCCCC1 | 92

For the molecule CC(C)c1noc(N2CCC([C@H]3C[C@H]3CCOc3ccc(CC(=O)N4CCC4)c(F)c3)CC2)n1 , give its measured Activity value. 102

Dear colleague, please send me the reported Activity for O=C(Cc1ccc(OCC[C@@H]2C[C@@H]2C2CCN(c3ncc(Cl)cn3)CC2)c(F)c1)N1CCC1 when you can. 91

Indicate its recorded Activity; the molecule in question is CC1(OC(=O)N2CCC([C@H]3C[C@H]3CCOc3ccc(CC(=O)N4CCC4)c(F)c3)CC2)CC1 115

Identify measured Activity associated with O=C(Cc1ccc(OCC[C@@H]2C[C@@H]2C2CCN(c3ncc(Cl)cn3)CC2)cc1F)N1CCC1 146

Identify the reported Activity for the following entry. NC(=O)Cc1ccc(OCC[C@@H]2C[C@@H]2C2CCN(c3ncc(Cl)cn3)CC2)cc1 68

Let me know recorded Activity for O=C(Cc1ccc(OCC[C@@H]2C[C@@H]2C2CCN(c3ncc(Cl)cn3)CC2)nc1)N1CCC1 , thanks. 133

Name the recorded Activity of the item COCc1cnc(N2CCC([C@H]3C[C@H]3CCOc3ccc(CC(=O)N4CCC4)c(F)c3)CC2)nc1 in your answer. 90

Give Activity for O=C(Cc1ccc(OCC[C@@H]2C[C@@H]2C2CCN(c3ncc(Cl)cn3)CC2)cc1)N1CCC1 93

* * *

assay name: Intrinsic clearance in rat liver microsomes
Type: ADME, microsome
reported conditions: read-out: CLH
assay readout: CLint scaled (mL/min/kg)
# unit: mL/min/kg | format: bare number

Let me know recorded CLint scaled for COCc1cnc(N2CCC([C@H]3C[C@H]3CCOc3cc(F)c(CC(=O)N4CCC4)c(F)c3)CC2)nc1 , thanks. 189

* * *

assay name: Volume of distribution in Beagle dog at 0.5 mg/kg, iv by LC-MS/MS analysis
Assay type: ADME, organism-based, Canis lupus familiaris
reported conditions: in vivo
assay readout: Vd (L/kg)
Your answer is read as L/kg, so omit the unit and give the number.

Give Vd for COCc1cnc(N2CCC([C@H]3C[C@H]3CCOc3cc(F)c(CC(=O)N4CCC4)c(F)c3)CC2)nc1 4.3

* * *

assay name: Fraction unbound in rhesus monkey plasma
Assay type: ADME, cell-free, Macaca mulatta
assay readout: fraction unbound
Quick one: just the number, no unit, thanks!

Quick one: give measured fraction unbound for COCc1cnc(N2CCC([C@H]3C[C@H]3CCOc3cc(F)c(CC(=O)N4CCC4)c(F)c3)CC2)nc1 0.08

* * *

// reported pIC50 for each item listed
measured target: Voltage-gated inwardly rectifying potassium channel KCNH2 (Homo sapiens, UniProt Q12809)
Sequence (Q12809 whole entry): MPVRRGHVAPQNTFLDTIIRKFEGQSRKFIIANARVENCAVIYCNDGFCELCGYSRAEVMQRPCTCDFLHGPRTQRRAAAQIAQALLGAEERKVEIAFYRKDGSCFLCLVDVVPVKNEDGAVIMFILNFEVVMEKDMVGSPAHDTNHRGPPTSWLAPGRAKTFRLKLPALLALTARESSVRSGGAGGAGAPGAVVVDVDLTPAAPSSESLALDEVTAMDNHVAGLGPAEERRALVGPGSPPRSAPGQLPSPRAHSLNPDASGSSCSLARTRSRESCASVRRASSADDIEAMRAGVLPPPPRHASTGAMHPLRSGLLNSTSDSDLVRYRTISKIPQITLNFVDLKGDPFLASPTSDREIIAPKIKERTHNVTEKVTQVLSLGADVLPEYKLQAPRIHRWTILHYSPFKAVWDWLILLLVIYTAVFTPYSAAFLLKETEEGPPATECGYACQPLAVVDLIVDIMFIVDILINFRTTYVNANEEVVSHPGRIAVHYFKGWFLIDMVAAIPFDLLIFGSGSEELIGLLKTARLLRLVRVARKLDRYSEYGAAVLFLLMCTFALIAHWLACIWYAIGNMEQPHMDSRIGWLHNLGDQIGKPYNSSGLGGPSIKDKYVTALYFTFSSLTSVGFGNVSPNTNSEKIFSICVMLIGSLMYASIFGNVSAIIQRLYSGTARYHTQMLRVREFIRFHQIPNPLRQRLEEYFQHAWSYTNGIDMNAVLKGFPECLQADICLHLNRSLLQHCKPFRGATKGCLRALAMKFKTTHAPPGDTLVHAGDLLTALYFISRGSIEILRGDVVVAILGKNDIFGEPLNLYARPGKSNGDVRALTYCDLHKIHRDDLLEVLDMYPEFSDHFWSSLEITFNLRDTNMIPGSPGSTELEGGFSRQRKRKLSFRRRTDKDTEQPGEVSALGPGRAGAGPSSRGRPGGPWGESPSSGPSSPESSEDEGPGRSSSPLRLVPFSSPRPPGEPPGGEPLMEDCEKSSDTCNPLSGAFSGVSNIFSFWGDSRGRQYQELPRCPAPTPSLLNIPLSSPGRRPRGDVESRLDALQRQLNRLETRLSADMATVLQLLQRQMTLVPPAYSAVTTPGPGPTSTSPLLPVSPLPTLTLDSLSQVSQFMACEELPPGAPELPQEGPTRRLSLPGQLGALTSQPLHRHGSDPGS
assay name: Inhibition of human ERG by PatchXpress method
On this scale, pIC50 is minus log10 of a concentration expressed in M (mol/L).

- COCc1cnc(N2CCC([C@H]3C[C@H]3CCOc3cc(F)c(CC(=O)N4CCC4)c(F)c3)CC2)nc1: 4.92

For the compound CC1(OC(=O)N2CCC([C@H]3C[C@H]3CCOc3ccc(CC(=O)N4CCC4)c(F)c3)CC2)CC1 , give its measured pIC50 value. 5.07

* * *

measured target: Nuclear receptor subfamily 1 group I member 2 (Homo sapiens)
Sequence (O75469 whole entry): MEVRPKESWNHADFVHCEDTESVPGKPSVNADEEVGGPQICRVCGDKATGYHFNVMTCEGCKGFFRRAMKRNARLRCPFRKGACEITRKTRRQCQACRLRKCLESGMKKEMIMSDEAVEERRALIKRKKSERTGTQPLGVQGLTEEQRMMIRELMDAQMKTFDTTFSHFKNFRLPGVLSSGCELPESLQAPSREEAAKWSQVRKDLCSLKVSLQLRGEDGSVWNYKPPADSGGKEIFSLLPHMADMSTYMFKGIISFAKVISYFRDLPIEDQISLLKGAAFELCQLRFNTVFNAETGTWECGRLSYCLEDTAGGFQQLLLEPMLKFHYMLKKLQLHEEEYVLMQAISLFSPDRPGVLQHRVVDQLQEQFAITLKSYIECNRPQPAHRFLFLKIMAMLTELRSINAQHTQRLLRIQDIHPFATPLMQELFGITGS
assay name: Activity at human PXR
assay readout: EC50

Query EC50 for COCc1cnc(N2CCC([C@H]3C[C@H]3CCOc3cc(F)c(CC(=O)N4CCC4)c(F)c3)CC2)nc1 > 30 µM

// data source = ChEMBL document CHEMBL3994654
